Numbers sourced from paper PMC3778312.

EXPERIMENT_SUMMARY: Docetaxel plasma pharmacokinetics in patients
Format: in vivo
RUN_CONDITIONS: human, plasma, intravenous, 75 mg m^-2
ASSAY_METRIC: clearance (mL/min)
Numeric only. Scale: mL/min

Prompt line: # clearance lookup, item CC(=O)O[C@@]12CO[C@@H]1C[C@H](O)[C@@]1(C)C(=O)[C@H](O)C3=C(C)[C@@H](OC(=O)[C@H](O)[C@@H](NC(=O)OC(C)(C)C)c4ccccc4)C[C@@](O)([C@@H](OC(=O)c4ccccc4)[C@H]21)C3(C)C
Response line: 2390

* * *

EXPERIMENT_SUMMARY: Docetaxel plasma pharmacokinetics in patients
Assay type: in vivo
RUN_CONDITIONS: human, plasma, intravenous, Cmax, C2D1 (with PX-866), mean, N=35, plasma
ASSAY_METRIC: Cmax (ng/mL)
Number in ng/mL, nothing else.

Prompt line: # input molecule: CC(=O)O[C@@]12CO[C@@H]1C[C@H](O)[C@@]1(C)C(=O)[C@H](O)C3=C(C)[C@@H](OC(=O)[C@H](O)[C@@H](NC(=O)OC(C)(C)C)c4ccccc4)C[C@@](O)([C@@H](OC(=O)c4ccccc4)[C@H]21)C3(C)C ; wanted: its Cmax
Response line: 539

* * *

EXPERIMENT_SUMMARY: Docetaxel plasma pharmacokinetics in patients
Format: in vivo
RUN_CONDITIONS: human, plasma, intravenous, 75 mg m^-2
ASSAY_METRIC: AUC(0-t)
Give the value; after it, write the unit.

Prompt line: Reported AUC(0-t) for CC(=O)O[C@@]12CO[C@@H]1C[C@H](O)[C@@]1(C)C(=O)[C@H](O)C3=C(C)[C@@H](OC(=O)[C@H](O)[C@@H](NC(=O)OC(C)(C)C)c4ccccc4)C[C@@](O)([C@@H](OC(=O)c4ccccc4)[C@H]21)C3(C)C : what is it?
Response line: 1.2 µg·h/mL

* * *

EXPERIMENT_SUMMARY: Docetaxel plasma pharmacokinetics in patients
Assay type: in vivo
RUN_CONDITIONS: human, plasma, intravenous
ASSAY_METRIC: Vd

Prompt line: I am curious: what Vd value has been reported for CC(=O)O[C@@]12CO[C@@H]1C[C@H](O)[C@@]1(C)C(=O)[C@H](O)C3=C(C)[C@@H](OC(=O)[C@H](O)[C@@H](NC(=O)OC(C)(C)C)c4ccccc4)C[C@@](O)([C@@H](OC(=O)c4ccccc4)[C@H]21)C3(C)C ?
Response line: 2690 L

* * *

EXPERIMENT_SUMMARY: Docetaxel plasma pharmacokinetics in patients
Type: in vivo
RUN_CONDITIONS: human, plasma, intravenous
ASSAY_METRIC: MRT inf (h)
Return type: number; implicit unit h.

Prompt line: // MRT inf lookup, key: CC(=O)O[C@@]12CO[C@@H]1C[C@H](O)[C@@]1(C)C(=O)[C@H](O)C3=C(C)[C@@H](OC(=O)[C@H](O)[C@@H](NC(=O)OC(C)(C)C)c4ccccc4)C[C@@](O)([C@@H](OC(=O)c4ccccc4)[C@H]21)C3(C)C
Response line: 13.9

* * *

EXPERIMENT_SUMMARY: Docetaxel plasma pharmacokinetics in patients
Type: in vivo
RUN_CONDITIONS: human, plasma, intravenous, Half-life, C2D1 (with PX-866), mean, N=35, plasma
ASSAY_METRIC: half-life (h)
// return numeric value only (unit: h, not printed)

Prompt line: What value of measured half-life is listed for CC(=O)O[C@@]12CO[C@@H]1C[C@H](O)[C@@]1(C)C(=O)[C@H](O)C3=C(C)[C@@H](OC(=O)[C@H](O)[C@@H](NC(=O)OC(C)(C)C)c4ccccc4)C[C@@](O)([C@@H](OC(=O)c4ccccc4)[C@H]21)C3(C)C [docetaxel] ?
Response line: 13.1
